test system: BT-549 breast; assay: NCI-60 one-dose screen, 48 h (100 = growth as untreated, 0 = no growth, -100 = all killed); details: 10 µM
The panel holds about 83,000 compounds, 20% with a hit somewhere; the sample as a whole holds those more often. The source made the active and inactive calls. The calls were made as follows: active = growth percent below 10; inactive = the rest.
Recorded growth for the following molecules
assayEndpoint: growth

INSERT INTO assay_data (molecule, measuredon, reportedvalue) VALUES
  ('COP(=S)(OC)Oc1ccc(SC)c(C)c1', 'BT-549 breast', '83.9% (inactive)'),
  ('N#CC(C#N)=Cc1ccc2ccccc2c1', 'BT-549 breast', '100% (inactive)'),
  ('O=C1NC(=O)C(Cc2ccccc2)(Cc2ccccc2)C(=O)N1', 'BT-549 breast', '118% (inactive)'),
  ('CC(C)(NC(=O)c1nn(CCCCCF)c2ccccc12)c1ccccc1', 'BT-549 breast', '73.5% (inactive)'),
  ('Oc1ccc2c3c1O[C@H]1c4[nH]c5ccccc5c4C[C@@]4(O)C(C2)N(CC2CC2)CC[C@]314', 'BT-549 breast', '97.4% (inactive)'),
  ('C[C@]12CC[C@H]3[C@@H](C[C@@H]4N=C(c5ccc(O)cc5)S[C@@]45C[C@H](O)CC[C@]35C)[C@@H]1CC[C@@H]2O', 'BT-549 breast', '59.3% (inactive)'),
  ('CCCCCCCCCCCCOc1ccc(C(=O)Oc2ccc(CSP3(=O)OCC4OC(n5cnc6c(N)ncnc65)C(F)C4OP(=O)(O)OCC4OC(n5ccc(=O)[nH]c5=O)C(F)C4O3)cc2)cc1 (configuration not stated)', 'BT-549 breast', '81.6% (inactive)'),
  ('CC(C)(C)NCC(O)c1ccccc1Cl (configuration not stated)', 'BT-549 breast', '35.2% (inactive)'),
  ('Cc1cccc(N(C)c2cccc3c2C(=O)[Se]C3)c1C', 'BT-549 breast', '52.4% (inactive)'),
  ('NC(Cc1ccc(O)cc1)C(=O)N/N=C/c1ccc(N(CCCl)CCCl)cc1 (configuration not stated)', 'BT-549 breast', '73.3% (inactive)'),
  ('CC12CC[C@H](O)C=C1/C(=N/O)CC1C2CCC2(C)C1CC[C@@H]2O (some centres not stated)', 'BT-549 breast', '85% (inactive)'),
  ('N#[N+]c1cnc([O-])[nH]c1=O', 'BT-549 breast', '114% (inactive)'),
  ('c1ccc(CCN2CCCCC2Cc2ccccc2)cc1 (configuration not stated)', 'BT-549 breast', '111% (inactive)'),
  ('COc1ccccc1N1CCN(CCc2c[nH]c3cc4c(cc23)OCO4)CC1', 'BT-549 breast', '84.2% (inactive)'),
  ('CC12CCC3C(CC=C4CC(O)CCC43C)C1C/C(=C\N1CCOCC1)C2=O (configuration not stated)', 'BT-549 breast', '93.1% (inactive)'),
  ('O=CC(Br)C(Br)c1ccccc1 (configuration not stated)', 'BT-549 breast', '99.7% (inactive)'),
  ('CCCCCCCCCCOc1ccc(C(=O)Oc2ccc(CSP3(=O)OCC4OC(n5ccc(=O)[nH]c5=O)C(F)C4OP(=O)(O)OCC4OC(n5cnc6c(N)ncnc65)C(F)C4O3)cc2)cc1 (configuration not stated)', 'BT-549 breast', '87.7% (inactive)'),
  ('CC1(C)N=C(N)N=C(N)N1c1ccc(CCCCc2ccc(Cl)cc2S(=O)(=O)F)c(Cl)c1', 'BT-549 breast', '37% (inactive)'),
  ('O=[N+]([O-])c1cccc([As]=[As]c2cccc([N+](=O)[O-])c2)c1 (configuration not stated)', 'BT-549 breast', '-97.7% (active)'),
  ('CC(=O)C1CCC2C3CC=C4CC(OC(=O)Cc5ccc(N(CCCl)CCCl)cc5)CCC4(C)C3CCC12C (configuration not stated)', 'BT-549 breast', '92% (inactive)'),
  ('COc1ccc(/C=C(/C(=O)N2CCCC2)c2cc(OC)c(OC)c(OC)c2)cc1N', 'BT-549 breast', '57.1% (inactive)'),
  ('CN1C(=O)NC(=O)C(N=Nc2ccc(Cl)cc2)C1=O (configuration not stated)', 'BT-549 breast', '80.3% (inactive)'),
  ('CCCCN(CCCC)CC(O)c1ccccc1 (configuration not stated)', 'BT-549 breast', '124% (inactive)'),
  ('ClCCN(CCCl)c1nc(Cl)c(C2CC(c3ccccc3)=NN2c2ccccc2)s1 (configuration not stated)', 'BT-549 breast', '99.3% (inactive)'),
  ('Cc1nnc([S-])s1.[Au+].c1ccc([PH+](c2ccccc2)c2ccccc2)cc1', 'BT-549 breast', '33.9% (inactive)'),
  ('COc1ccc(CN2CCN(Cc3ccccc3)CC2)c(O)c1', 'BT-549 breast', '92% (inactive)'),
  ('ClCCN(CCCl)c1nc(Cl)c(C2CC(c3ccc(Cl)cc3)=NN2c2cc(Cl)cc(Cl)c2)s1 (configuration not stated)', 'BT-549 breast', '103% (inactive)'),
  ('n1nc(-c2nonc2-c2nn[nH]n2)n[nH]1', 'BT-549 breast', '103% (inactive)'),
  ('CNC(=O)O/N=C(/C)c1ccc(Cl)cc1', 'BT-549 breast', '91.1% (inactive)'),
  ('C/C1=C/C(=O)O[C@@H]2C[C@@H](CC[C@H](C)/C=C\C=C\CC1)O[C@@](OCCc1ccccc1)([C@@H]1CSC(=O)N1)C2', 'BT-549 breast', '-43% (active)'),
  ('CCOC(=O)C1(c2ccccc2)CCN(CC(=O)c2ccc(NC(C)=O)cc2)CC1', 'BT-549 breast', '97% (inactive)'),
  ('C[C@]12CC[C@@H]3C4=C(CC[C@H]3[C@@H]1CC[C@@H]2O)CC(=O)CC4', 'BT-549 breast', '122% (inactive)');
